molecular target: FGFR1 (UniProt P11362); experiment: phosphorylation enrichment, bacterial display (enrichment ratio); higher = better substrate or ligand; peptides without Tyr show the background
Sequence (P11362 whole entry, looked up): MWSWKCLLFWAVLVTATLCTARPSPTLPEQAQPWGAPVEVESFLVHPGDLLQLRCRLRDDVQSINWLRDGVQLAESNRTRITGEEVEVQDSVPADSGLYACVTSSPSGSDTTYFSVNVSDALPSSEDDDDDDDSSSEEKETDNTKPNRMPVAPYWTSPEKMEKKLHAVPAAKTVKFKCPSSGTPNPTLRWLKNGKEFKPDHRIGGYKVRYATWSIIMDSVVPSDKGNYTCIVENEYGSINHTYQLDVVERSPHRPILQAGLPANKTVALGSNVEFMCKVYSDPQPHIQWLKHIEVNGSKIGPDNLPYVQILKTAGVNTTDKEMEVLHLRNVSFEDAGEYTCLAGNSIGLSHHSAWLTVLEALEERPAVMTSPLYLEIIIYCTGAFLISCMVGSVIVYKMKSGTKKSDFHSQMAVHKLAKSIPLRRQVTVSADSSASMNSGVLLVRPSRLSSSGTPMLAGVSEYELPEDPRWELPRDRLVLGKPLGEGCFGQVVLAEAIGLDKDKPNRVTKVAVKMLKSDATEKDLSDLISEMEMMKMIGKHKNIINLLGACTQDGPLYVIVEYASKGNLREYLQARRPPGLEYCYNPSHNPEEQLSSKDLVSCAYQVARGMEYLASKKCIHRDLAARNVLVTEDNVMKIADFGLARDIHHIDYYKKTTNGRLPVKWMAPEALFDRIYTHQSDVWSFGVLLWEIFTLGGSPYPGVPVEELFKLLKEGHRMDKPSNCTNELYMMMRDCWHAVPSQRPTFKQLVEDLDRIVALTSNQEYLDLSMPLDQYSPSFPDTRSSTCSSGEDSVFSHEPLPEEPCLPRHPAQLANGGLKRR
QUANTITY KIND: phosphorylation enrichment

Reference set (6 entries):
>  <RESIDUE SEQUENCE>
NQDRTYYESVR [SPEN_Y632]

>  <QUANTITY KIND>
phosphorylation enrichment

>  <READING>
1.02

$$$$
>  <RESIDUE SEQUENCE>
TSIGNYYKPWF [DHCR24_Y299_N294T]

>  <QUANTITY KIND>
phosphorylation enrichment

>  <READING>
5.29

$$$$
>  <RESIDUE SEQUENCE>
CTTIHYHYMCN [TP53_Y234_N235H]

>  <QUANTITY KIND>
phosphorylation enrichment

>  <READING>
0.568

$$$$
>  <RESIDUE SEQUENCE>
QRRYLYYYSYL [PTEN_Y176_V175L]

>  <QUANTITY KIND>
phosphorylation enrichment

>  <READING>
4.64

$$$$
>  <RESIDUE SEQUENCE>
DLKFHYDNTAG [KDR_Y1214_P1210L]

>  <QUANTITY KIND>
phosphorylation enrichment

>  <READING>
0.517

$$$$
>  <RESIDUE SEQUENCE>
FVSIVCNDSGE [TSC2_Y1650_Y1650C]

>  <QUANTITY KIND>
phosphorylation enrichment

>  <READING>
0.534

$$$$

Now examine the next entry.
Looking for the measured phosphorylation enrichment of NFRNTYVNANE [KCNH2_Y475_T473N] , can you help?
0.434

###

tested on: Fer (mouse); experiment: phosphorylation enrichment, bacterial display (enrichment ratio); higher = better substrate or ligand; peptides without Tyr show the background
// label = class 1 if phosphorylation enrichment is not less than 0.5, otherwise class 0

>  <RESIDUE SEQUENCE>
TSIGNYYKPWF [DHCR24_Y299_N294T]

>  <TESTED SYSTEM>
Fer (mouse)

>  <GROUP LABEL>
class 0

$$$$
>  <RESIDUE SEQUENCE>
RGRSTYYWPRP [GAGE12J_Y9]

>  <TESTED SYSTEM>
Fer (mouse)

>  <GROUP LABEL>
class 1

$$$$
>  <RESIDUE SEQUENCE>
GVYSRHFTTYD [CLCA1_Y661_Y661H]

>  <TESTED SYSTEM>
Fer (mouse)

>  <GROUP LABEL>
class 1

$$$$

Record ADARMYGVLPR [PLP1_Y207_W212R] ; criterion: phosphorylation enrichment no lower than 0.5. Met?
class 0

Quick one: ARGMEYLASKK [FGFR1_Y613]
class 0

Quick one: KASIMYPSSNC [CXCL11_Y52_N55S]
class 0

###

molecular target: Hck (UniProt P08631); assay: phosphorylation enrichment, bacterial display (enrichment ratio); higher = better substrate or ligand; peptides without Tyr show the background
Sequence (P08631 whole entry, looked up): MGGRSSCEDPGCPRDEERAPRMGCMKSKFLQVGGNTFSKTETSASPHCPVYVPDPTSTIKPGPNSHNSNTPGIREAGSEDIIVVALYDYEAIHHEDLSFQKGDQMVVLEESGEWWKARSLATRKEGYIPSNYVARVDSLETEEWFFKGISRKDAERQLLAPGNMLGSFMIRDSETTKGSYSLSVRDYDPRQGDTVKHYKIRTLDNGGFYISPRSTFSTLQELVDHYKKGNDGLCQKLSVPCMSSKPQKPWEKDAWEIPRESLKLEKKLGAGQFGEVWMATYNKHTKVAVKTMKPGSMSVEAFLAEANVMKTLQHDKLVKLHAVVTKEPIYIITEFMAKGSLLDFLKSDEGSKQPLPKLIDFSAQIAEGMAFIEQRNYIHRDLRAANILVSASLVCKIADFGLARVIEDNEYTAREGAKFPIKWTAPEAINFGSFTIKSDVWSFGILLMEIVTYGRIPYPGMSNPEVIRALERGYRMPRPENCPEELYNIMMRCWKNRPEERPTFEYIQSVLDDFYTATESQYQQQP
QUANTITY KIND: phosphorylation enrichment
Could you keep your reply to the number by itself?

Reference set (6 entries):
>  <RESIDUE SEQUENCE>
GVRLFYRVRES [RB1_Y454_M457R_YF]

>  <phosphorylation enrichment>
0.375

$$$$
>  <RESIDUE SEQUENCE>
MLNTNYHLPPS [MT-ATP8_Y33]

>  <phosphorylation enrichment>
0.297

$$$$
>  <RESIDUE SEQUENCE>
SFPREYGSQEG [RBM10_Y48_YF]

>  <phosphorylation enrichment>
0.565

$$$$
>  <RESIDUE SEQUENCE>
TAIFIYIRPKA [OR10C1_Y258_L255I]

>  <phosphorylation enrichment>
0.481

$$$$
>  <RESIDUE SEQUENCE>
LNARHYGGLTG [PGAM2_Y92_E89A]

>  <phosphorylation enrichment>
0.542

$$$$
>  <RESIDUE SEQUENCE>
DAAEDYAEGVC [DHODH_Y194_R199C]

>  <phosphorylation enrichment>
0.559

$$$$

Looking for the measured phosphorylation enrichment of LRYEVYGGENE [STOX1_Y610] , can you help?
0.828

Quick one: QDTSRYTVSNL [BIRC3_Y245]
0.467

Quick one: SDLTDYLMKIL [ACTA1_Y190_R185S]
0.571

Quick one: DAVAVYDGKIS [SH2D1A_Y7_H8D]
2.02

Quick one: RFGKVYKGHLF [ROR2_Y488]
0.604

Quick one: TLQSMYGCDLG [HLA-B_Y123_V127L]
0.591

Quick one: KPGVNYYFQVS
0.526

Quick one: NQDRTYYESVR [SPEN_Y632]
2.05

###

biological target: Grb2 SH2 (UniProt P62993); test: SH2 binding enrichment of the phosphorylated peptide, bacterial display (enrichment ratio); higher = better substrate or ligand; peptides without Tyr show the background
Sequence (P62993 whole entry, looked up): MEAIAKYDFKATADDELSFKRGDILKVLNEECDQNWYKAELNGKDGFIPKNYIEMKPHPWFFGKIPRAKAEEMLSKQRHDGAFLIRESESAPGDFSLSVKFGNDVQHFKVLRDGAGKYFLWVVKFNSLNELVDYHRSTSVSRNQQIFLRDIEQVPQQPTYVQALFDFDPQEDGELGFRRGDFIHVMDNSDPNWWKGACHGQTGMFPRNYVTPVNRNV
// label = 1 (yes) if SH2 binding enrichment is not less than 0.8, otherwise 0 (no)

>  <RESIDUE SEQUENCE>
QWQQLYDTLNA [EIF3M_Y351]

>  <TESTED SYSTEM>
Grb2 SH2 (UniProt P62993)

>  <GROUP LABEL>
1 (yes)

$$$$

Record NNKKDYFDMFE [SLC26A3_Y526_K521N_YF] ; criterion: SH2 binding enrichment no lower than 0.8. Met?
0 (no)

Quick one: DPNQQYFIAMD [TBX15_Y159_H156N_YF]
0 (no)

Quick one: VASIFYTLVIP [OR8K3_Y277]
1 (yes)

Quick one: PNATLYKMSSI [SERPINA7_Y40]
1 (yes)

Quick one: DLEKTYNTYRS [B4GALNT2_Y538_A533D]
0 (no)

###

molecular target: SHP2-C SH2; assay: SH2 binding enrichment of the phosphorylated peptide, bacterial display (enrichment ratio); higher = better substrate or ligand; peptides without Tyr show the background
QUANTITY KIND: SH2 binding enrichment
Could you keep your reply to the number by itself?

>  <RESIDUE SEQUENCE>
LGLDECLDKLK [FMNL2_Y352_Y352C]

>  <TESTED SYSTEM>
SHP2-C SH2

>  <QUANTITY KIND>
SH2 binding enrichment

>  <READING>
0.492

$$$$
>  <RESIDUE SEQUENCE>
LARNMYDKEYY [MET_Y1230_D1228N]

>  <TESTED SYSTEM>
SHP2-C SH2

>  <QUANTITY KIND>
SH2 binding enrichment

>  <READING>
0.673

$$$$
>  <RESIDUE SEQUENCE>
LAVNPYGPPDP

>  <TESTED SYSTEM>
SHP2-C SH2

>  <QUANTITY KIND>
SH2 binding enrichment

>  <READING>
0.7

$$$$
>  <RESIDUE SEQUENCE>
ADMETYLLEKS [MYH7_Y266_I263M]

>  <TESTED SYSTEM>
SHP2-C SH2

>  <QUANTITY KIND>
SH2 binding enrichment

>  <READING>
0.564

$$$$
>  <RESIDUE SEQUENCE>
CGLPRYRWLTH [TSPAN12_Y143_Y138C]

>  <TESTED SYSTEM>
SHP2-C SH2

>  <QUANTITY KIND>
SH2 binding enrichment

>  <READING>
0.536

$$$$
>  <RESIDUE SEQUENCE>
SSSGAYGGGFG [KRT19_Y61_YF]

>  <TESTED SYSTEM>
SHP2-C SH2

>  <QUANTITY KIND>
SH2 binding enrichment

>  <READING>
0.517

$$$$
>  <RESIDUE SEQUENCE>
APTSGYREFVH [IL4R_Y575_Q576R]

>  <TESTED SYSTEM>
SHP2-C SH2

>  <QUANTITY KIND>
SH2 binding enrichment

>  <READING>
0.561

$$$$
>  <RESIDUE SEQUENCE>
FFCKFYNKSED [RYR1_Y4864_R4861C]

>  <TESTED SYSTEM>
SHP2-C SH2

>  <QUANTITY KIND>
SH2 binding enrichment

>  <READING>
0.586

$$$$
>  <RESIDUE SEQUENCE>
NIISFYLSRDP [CTSD_Y232_F229I]

>  <TESTED SYSTEM>
SHP2-C SH2

>  <QUANTITY KIND>
SH2 binding enrichment

>  <READING>
1.41

$$$$
>  <RESIDUE SEQUENCE>
ALIKAYDKAVA [SMN1_Y43]

>  <TESTED SYSTEM>
SHP2-C SH2

>  <QUANTITY KIND>
SH2 binding enrichment

>  <READING>
0.573

$$$$

Looking for the measured SH2 binding enrichment of GEFFRYLAEVA [YWHAG_Y133_D129E_YF] , can you help?
0.673

Quick one: LRRREYQRQDY [PRKRIP1_Y90]
0.727

Quick one: NGLVACKDGKL [PMM2_Y76_Y76C]
0.893

Quick one: RENGPYFTSFP [GDAP2_Y487_YF]
0.773

This collection of values is drawn from the supplement of paper PMC10065799.
